Test: NCI Yeast Anticancer Drug Screen. Data for the sgs1 mgt1 strain (AID 161);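 note: 0% = growth of cultures given vehicle only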
Details: S. cerevisiae sgs1 mgt1 strain, at 50.0 µM, stronger effect = higher value
About 79,000 compounds went through this panel and 15% of them were active in at least one assay; those are over-represented in the sample as a whole. Calls of active or inactive are those of the source. Cut-off read from the data, not from the text of the source: active = growth inhibition above about 70%; inactive = the rest.
A collection of compounds and their measured growth inhibition

- COMPOUND: "CCOS(=O)(=O)c1ccc([N+](=O)[O-])cc1"
  growth inhibition: "4.5% (inactive)"
- COMPOUND: "Cc1ccc(C)c2c1CCC2=O"
  growth inhibition: "13.8% (inactive)"
- COMPOUND: "Cc1ccccc1NC(=O)Oc1ccc(Cl)cc1C(=O)c1ccccc1"
  growth inhibition: "18.7% (inactive)"
- COMPOUND: "CCCCCCCCCCCCCCCCCCSC(=N)N"
  growth inhibition: "-9.1% (inactive)"
- COMPOUND: "S=C=Nc1ccc2ccccc2c1"
  growth inhibition: "-5.9% (inactive)"
- COMPOUND: "N#Cc1ccc2nc[nH]c2c1"
  growth inhibition: "-13% (inactive)"
- COMPOUND: "COC(=O)c1ccccc1C(=O)c1c(C)cc(C)cc1C"
  growth inhibition: "34.1% (inactive)"
- COMPOUND: "CCOC(=O)CO"
  growth inhibition: "-13.4% (inactive)"
- COMPOUND: "COC(c1ccc2c(c1)OCO2)C(C)Br (stereo not given)"
  growth inhibition: "13.6% (inactive)"
- COMPOUND: "Nc1ccc(F)c(Cl)c1F"
  growth inhibition: "-14.3% (inactive)"

---

Test: NCI Yeast Anticancer Drug Screen. Data for the rad50 strain (AID 155);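 note: 0% = growth of vehicle-only cultures of the same strain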
Conditions: S. cerevisiae rad50 strain growth inhibition; at 50.0 µM
About 79,000 compounds went through this panel and 15% of them were active in at least one assay; those are over-represented in the sample as a whole. Calls of active or inactive are those of the source. No stated cut-off is given here; in the data, active means growth inhibition above about 70%; inactive means the rest.
Classes used: active, inactive

- COMPOUND: "O=C(NC(=S)N1CC=CCC1)c1ccccc1"
  GROUP_LABEL: "inactive"
- COMPOUND: "CCOC(=O)C1(N)CCCCC1"
  GROUP_LABEL: "inactive"
- COMPOUND: "Cc1ccc(N2C(=O)c3cccc4c(N)c(S(=O)(=O)O)cc(c34)C2=O)cc1"
  GROUP_LABEL: "inactive"
- COMPOUND: "CC(=O)CSc1ncnc2nc[nH]c12"
  GROUP_LABEL: "inactive"
- COMPOUND: "COc1ccc(C(=O)/C(=N/Nc2ccccc2)c2ccc(OC)cc2)cc1"
  GROUP_LABEL: "inactive"
- COMPOUND: "CCNc1ccc2ccccc2c1N=Nc1ccc(N=Nc2ccccc2)cc1"
  GROUP_LABEL: "inactive"
- COMPOUND: "CCC(C)c1c(N)n(S(=O)(=O)c2ccc(C)cc2)oc1=O (stereo not drawn)"
  GROUP_LABEL: "inactive"
- COMPOUND: "CC(=O)OCC1OC(n2cnc3c(=S)nc(N)[nH]c32)C(OC(C)=O)C1OC(C)=O (stereo not drawn)"
  GROUP_LABEL: "active"
- COMPOUND: "CCC(=O)C1C(=O)c2ccccc2C1=O"
  GROUP_LABEL: "inactive"
- COMPOUND: "O=[n+]1ccn([O-])c2ccccc21"
  GROUP_LABEL: "inactive"
- COMPOUND: "c1ccc(Oc2c3ccccc3nc3ccccc23)cc1"
  GROUP_LABEL: "inactive"
- COMPOUND: "Cn1c(=O)c2[nH]c(CCCCC(=O)O)nc2n(C)c1=O"
  GROUP_LABEL: "inactive"
- COMPOUND: "O=CNCCc1ccccc1"
  GROUP_LABEL: "inactive"
